Hey, just so you know, these numbers are from ChEMBL document CHEMBL1157539.

Test system: Plasmodium falciparum
experimental-details: GSK_TCMDC: Inhibition of Plasmodium falciparum 3D7 in whole red blood cells, using parasite LDH activity as an index of growth. Test compounds present at 2uM
Type: functional
property-label: Inhibition
Reply with the number, then its unit.

{"columns": ["compound", "property-label", "readout-value"],
 "data": [
  ["COc1ccc2nccc([C@@H](O)CN3CCC(NC(=O)/C=C/c4cc(F)cc(NC(C)=O)c4)CC3)c2c1", "Inhibition", "97%"]
]}

Please supply Inhibition for each of the following items, keeping them in order.
1. Br.CCc1ccc(OCCCON2C(=N)N=C(N)NC2(C)C)cc1
2. CC(C#N)Cc1ccc(-c2cnc(N)c3cc(-c4ccnc(N)n4)ccc23)cc1 (configuration not stated)
3. COc1ccccc1C1CCN(C2CCC(NC(=O)c3ccc4[nH]c(-c5ccc(C)cc5)nc4c3)CC2)CC1 (configuration not stated)
4. CCc1ccc(NC(=O)c2ccc(CN3CCCN(CCC(C)C)CC3)cc2)cc1.O=C(O)C(F)(F)F
5. O=C(Nc1cccc(-c2ccc(-c3nc4ccccc4[nH]3)cc2)c1)c1cnn2cccnc12
6. O=C(NCC1CCC(C(=O)O)CC1)c1ccc(/C=C/C(=O)N2CCc3ccccc3C2c2ccc3c(c2)OCO3)cc1 (configuration not stated)

[out]
["95%", "96%", "100%", "96%", "87%", "91%"]

Take each entry in turn and give its Inhibition.
1. CN1CCN(Cc2cccc(-c3ccc4c(Nc5cc(O)c(Cl)cc5F)ccnc4c3)c2)CC1
2. COc1ccc(CCN(C)CCCCc2ccc(NC(=O)c3cccc4c(=O)c5cc(F)ccc5sc34)cc2)cc1OC
3. Oc1cc(Nc2ccnc3cc(-c4cccc(CN5CCOCC5)c4)ccc23)c(F)cc1Cl

[out]
["100%", "96%", "100%"]

I have 4 compounds here; please give me Inhibition for each one.
1. Cc1cccc2nc(-c3ccc(-c4ccc(CNCCN5CCNCC5)cc4)s3)[nH]c12.O=C(O)C(F)(F)F
2. Cc1ccc(-c2cc(C(=O)Nc3ccc(S(=O)(=O)N4CCCCC4)cc3)[nH]n2)c(O)c1
3. NC(=O)c1ccc(-n2cnc3cc(F)ccc32)cc1OCc1ccccc1C(F)(F)F.NC(=O)c1ccc(-n2cnc3ccc(F)cc32)cc1OCc1ccccc1C(F)(F)F
4. Cc1cc(NC(=O)c2cccs2)ccc1OC1CCN(Cc2ccccc2)CC1.O=C(O)C(F)(F)F

[out]
88%
97%
97%
95%

State recorded Inhibition for all listed compounds.
1. CCOC(=O)N1CCN(CCCCCNc2cc(C)nc(NC(=N)Nc3ccc(Cl)cc3)n2)CC1.Cl
2. CN1CCCC1CCNCc1cccc(-c2cnc(N3CCCC(C)(C)C3)nc2)c1 (configuration not stated)
3. O=C(O)C(F)(F)F.OCCN1CCN(Cc2ccc(-c3cccc(-c4nc5cc(F)ccc5[nH]4)c3)cc2)CC1
4. COc1cc(Cc2cnc(N)nc2N)cc(OC(C)C)c1OC

[out]
1. 100%
2. 98%
3. 100%
4. 91%

----------
System: Plasmodium falciparum
experimental-details: GSK_TCMDC: Inhibition of Plasmodium falciparum Dd2 in whole red blood cells, using parasite LDH activity as an index of growth. Test compounds present at 2uM
Type: functional
property-label: Inhibition (%)
Numbers only, in %.

Check out these entries, answers already filled in.
{"columns": ["compound", "Inhibition [%]"],
 "data": [
  ["CCc1ccc(Cc2cnc3nc(N)nc(N)c3c2C)cc1", 0],
  ["Cc1nc(C)c(CC(=O)Nc2ccc(-c3ccc(-c4nc5cc(C(F)(F)F)ccc5[nH]4)s3)cc2)s1", 29],
  ["COc1ccccc1CNc1nc(Nc2ccccc2C)nc2ccccc12", 67]
]}

Would you mind giving Inhibition for every compound in the list below?
1. O=C1CC(C(=O)Nc2cccc(-c3cccc(-c4nc5ccccc5[nH]4)c3)c2)c2ccccc2N1 (configuration not stated)
2. Cc1cccc(CCNC(=O)c2cc(Br)cc(N3CCN(c4ccncc4)CC3)c2)c1.O=C(O)C(F)(F)F
3. Cn1cccc1C(=O)C(=O)Nc1ccc(-c2ccc(-c3nc4cc(F)ccc4[nH]3)cc2)cc1
4. COc1ccc2nccc([C@@H](O)CN3C4CCC3CC(NCc3ccc5c(n3)NC(=O)CS5)C4)c2n1.Cl (some centres not stated)
5. Fc1ccc(Nc2ccnc3cc(-c4cccc(CN5CCCCC5)c4)ccc23)c(Cl)c1

[out]
32
53
33
11
58

Take each entry in turn and give its Inhibition.
1. Cl.Nc1nc(N)c2c(n1)CCc1cc(Br)ccc1-2
2. CCN(CC)CCN(Cc1ccc(-c2ccc(C(F)(F)F)cc2)cc1)C(=O)Cn1c(CCc2ccc(F)c(F)c2F)nc(=O)c2ccccc21.O=C(O)C(O)C(O)C(=O)O
3. c1nc(CCNc2nc(Nc3ccc4c(c3)OCO4)nc(NC3CCCC3)n2)c[nH]1

[out]
1. 4
2. 66
3. 0

Give me Inhibition for each of these compounds, listed below.
1. O=C(Nc1nc2cc(S(=O)(=O)NCc3ccc(Cl)c(Cl)c3)ccc2n1CCCN1CCCC1)c1ccc(Cl)cc1.O=C(O)C(F)(F)F
2. COc1ccc(NC(=O)Nc2nc(-c3ccc(Cl)c(C)c3)cs2)cc1N1CCN(C)CC1.Cl

[out]
1. 16
2. 89

Batch request: Inhibition for each of the following compounds.
1. CN(/N=C/c1ccc(Cl)cc1)c1nc(NCCc2ccc(O)cc2)nc(N2CCNCC2)n1
2. NC(=O)COc1c(C2CCN(CCN3CCC(CNC(=O)c4ccc(-c5ccc(C(F)(F)F)cc5)cc4)CC3)CC2)ccc2c1CCCC2
3. CN1CCCN(Cc2ccc(-c3ccc(NS(=O)(=O)c4cccc5cccnc45)cc3)cc2)CC1.O=C(O)C(F)(F)F
4. CC1CN(c2cnn(Cc3ccc(NC(=O)Nc4ccc(F)cc4[N+](=O)[O-])cc3)c(=O)c2Cl)CC(C)N1.O=C(O)C(F)(F)F (configuration not stated)

[out]
[97, 68, 85, 10]
